cell viability overview
Tested on: NOMO1
assayProcedure: cell viability relative to DMSO control; higher = less cytotoxic
measurementConditions: RPMI 5 mM glucose + 10% FBS; 48 h; 0.0632 µM
Please give a number only; it is taken to be in %.

Solved entries (count: 2):
CC(NC(C)(C)C)C(=O)c1cccc(Cl)c1 (stereo unspecified)
133
Cc1ccccc1C(OCCN(C)C)c1ccccc1 (stereo unspecified)
120

Need cell viability, item O=C(O)CCCCC(CCSCc1ccccc1)SCc1ccccc1 (stereo unspecified)
121

What would you report for O=C/1NC(=O)C(=C1C2=CN=C3C=CC=C[N]23)/C4=C[N]5CCN(CC6=C5C4=CC=C6)C(=O)N7CCOCC7 ?
140

What would you report for CC(C)=CCC/C(C)=C/CC/C(C)=C/CC/C(C)=C/CC/C(C)=C/CC/C(C)=C/CC/C(C)=C/CC/C(C)=C/CC/C(C)=C/CO ?
101

What would you report for CN(C)c1ccc2nc3ccc(N(C)C)cc3[s+]c2c1 ?
93.4

What would you report for CN(C)C1=CC(=CC=C1)C\2=C\3C(=O)N(NC3=C/C(=O)N2C)C4=CC=CC=C4Cl ?
116
